# Tested on: SK-MEL-2
# Assay notes: Cytotoxicity against human SK-MEL-2 cells by sulforhodamine B bioassay
# Format: functional, cell-based
Reported endpoint: pIC50
When answering, recall that pIC50 equals minus log10 of the concentration in mol/L, and write that number alone.

The reported value for "COc1cccc2c1C(=O)c1c(O)c3c(c(O)c1C2=O)C[C@@](O)(C(=O)CO)C[C@@H]3O[C@H]1C[C@H](N)[C@H](O)[C@H](C)O1" in terms of pIC50 is 8.60

====

# Assay notes: Cytotoxicity against mouse BV2 cells by MTT assay
# Design: concentration or dose not given beside the values
# Condition details: bv-2
Reported endpoint: Activity (%)
Could you give me the number in %? Just the number is fine.

The reported value for "O=C(/C=C/c1ccc(O)cc1)OC[C@H]1O[C@@H](O[C@@H]2CCCC[C@H]2O)[C@H](O)[C@@H](O)[C@@H]1O" in terms of Activity is 100.7

The reported value for "O=C(/C=C/c1ccc(O)cc1)O[C@H]1[C@H](O[C@@H]2CCCC[C@H]2O)O[C@H](CO)[C@@H](O)[C@@H]1O" in terms of Activity is 107.2

The reported value for "O=C(/C=C\c1ccc(O)cc1)O[C@@H]1[C@H](O[C@H]2CCCC[C@@H]2O)O[C@H](CO)[C@@H](O)[C@H]1O" in terms of Activity is 96.2

The reported value for "O=C(/C=C/c1ccc(O)cc1)O[C@H]1[C@H](O[C@H]2CCCC[C@@H]2O)O[C@H](CO)[C@@H](O)[C@@H]1O" in terms of Activity is 93.6

The reported value for "O=C(/C=C\c1ccc(O)cc1)O[C@H]1[C@H](O[C@@H]2CCCC[C@H]2O)O[C@H](CO)[C@@H](O)[C@@H]1O" in terms of Activity is 102.5

The reported value for "CNC(=N)NCCC[C@H](N)C(=O)O" in terms of Activity is 99.8
